Item-by-item account of OD 490/630 nm
- assay target: T1, Ala mutant of TA0096, SEQ ID NO: 28
- T1 peptide: EANMDDQWMQDEMEIGY
- protocol description: ELISA, coated peptide
assay metric: OD 490/630 nm

* G6 (antibody, V domains shown, Chicken variable regions in a mouse chimeric antibody (IgG1); also called anti-PAD4 antibody G6) VH: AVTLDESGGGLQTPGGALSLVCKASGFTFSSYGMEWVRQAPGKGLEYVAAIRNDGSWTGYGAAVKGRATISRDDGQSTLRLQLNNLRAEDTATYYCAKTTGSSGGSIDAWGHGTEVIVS VL: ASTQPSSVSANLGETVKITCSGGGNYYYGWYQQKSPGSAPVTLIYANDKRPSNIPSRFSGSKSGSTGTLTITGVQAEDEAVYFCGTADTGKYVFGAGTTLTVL | 1.99
* A11 (antibody, V domains shown, Chicken variable regions in a mouse chimeric antibody (IgG1); also called anti-PAD4 antibody A11) VH: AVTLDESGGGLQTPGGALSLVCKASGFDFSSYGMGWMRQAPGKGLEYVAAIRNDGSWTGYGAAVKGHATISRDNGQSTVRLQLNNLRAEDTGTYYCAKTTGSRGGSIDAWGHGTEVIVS VL: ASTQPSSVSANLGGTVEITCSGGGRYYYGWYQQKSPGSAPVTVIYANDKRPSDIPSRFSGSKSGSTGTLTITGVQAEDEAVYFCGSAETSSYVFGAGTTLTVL | 2
* G9 (antibody, V domains shown, Chicken variable regions in a mouse chimeric antibody (IgG1); also called anti-PAD4 antibody G9) VH: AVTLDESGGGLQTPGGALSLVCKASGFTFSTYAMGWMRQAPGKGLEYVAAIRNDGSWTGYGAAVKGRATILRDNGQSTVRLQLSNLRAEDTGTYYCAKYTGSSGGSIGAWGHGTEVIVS VL: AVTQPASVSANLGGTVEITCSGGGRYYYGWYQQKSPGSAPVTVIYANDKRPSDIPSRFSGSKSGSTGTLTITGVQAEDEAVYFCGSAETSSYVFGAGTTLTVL | 1.96
